molecules and their reported RP-LC retention time
assay: gradient 5% acetonitrile 3 min, to 50% in 2 min, to 85% in 15 min, held 3 min, 100 µL/min; settings: column: Zorbax Extend-C18 2.1 x 50 mm; eluents: water / acetonitrile, 0.1% formic acid
# output: bare number, implied unit s

| Molecule | RP-LC retention time [s] |
| --- | --- |
| Cc1ccc(CNC(=O)C2(C)CN(S(C)(=O)=O)CC(=O)N2c2ccc(C(C)C)cc2)cc1 (centres undefined) | 935 |
| CC1CCn2c(nc3cc(C(=O)N4CCN(c5ncccn5)CC4)ccc32)C1 (centres undefined) | 593 |
| CN1C(=O)Cc2cc(NC(=O)c3cccs3)ccc21 | 631 |
| Cc1cccn2cc(-c3ccc(NS(=O)(=O)c4ccccc4)cc3)nc12 | 617 |
| CSc1cccc(NC(=O)CCc2c(-c3ccc(F)cc3)nc3ccccn23)c1 | 713 |
| COc1ccccc1NS(=O)(=O)c1ccc2c(c1)C(=O)N(C)c1ncccc1O2 | 885 |
| Cc1ccc(CNC(=O)C2(C)CCN(S(=O)(=O)c3ccc(C)c(C)c3)CC2)cc1 | 1050 |
| O=C(c1ccoc1)N1[C@H]2CC[C@@H]1c1cnc(-c3ccc(F)cc3)nc1C2 | 882 |
| Cc1cc(C)nc(Nc2nc(C(=O)Nc3ccc(N4CCOCC4)cc3)cs2)n1 | 746 |
| CCSc1nnc(-c2nn(C)c3c2CN(S(=O)(=O)c2ccc(C)c(Cl)c2)CC3)n1CC | 1050 |

Entry CCN1c2cc(C(N)=O)ccc2C(=O)N2CCCCCC21 (centres undefined) ; RP-LC retention time = 649

Entry CC(C(=O)NCCCN1CCCCC1)n1c2ccccc2c2cnn(C)c(=O)c21 (centres undefined) ; RP-LC retention time = 618

Entry CCCN(CC1CCOC1)C(=O)Nc1ccc(C(F)(F)F)cc1 (centres undefined) ; RP-LC retention time = 908

Entry "Cc1nc2c(sc3nc(-c4ccccc4)ccc32)c(=O)n1CC(=O)Nc1ccc(C(C)C)cc1" ; RP-LC retention time = 1200

Entry "CC(C)Cc1nc(CNC(=O)c2coc(C3CC3)n2)no1" ; RP-LC retention time = 808

Entry CC1(C)SC2C(NC(=O)[C@H](NC(=O)N3CCNC3=O)c3ccccc3)C(=O)N2C1C(=O)O (some centres undefined) ; RP-LC retention time = 709

Entry "Cc1noc([C@@H]2CN(C(=O)Cc3c(C)noc3C)C[C@H]2C(N)=O)n1" ; RP-LC retention time = 593

Entry COc1ccc(CC(=O)NCC2CCC(c3nc4ccccc4n3C)CC2)cc1 (centres undefined) ; RP-LC retention time = 579

Entry "COc1ccc(CNC(=O)N(Cc2ccsc2)C2CC2)cc1OC" ; RP-LC retention time = 769

###

molecules and their reported RP-LC retention time
assay: gradient 5% acetonitrile 3 min, to 50% in 2 min, to 85% in 15 min, held 3 min, 100 µL/min; settings: column: Zorbax Extend-C18 2.1 x 50 mm; eluents: water / acetonitrile, 0.1% formic acid
# output: bare number, implied unit s

Worked cases, RP-LC retention time given:
| Molecule | Observation Type | Result Number |
| --- | --- | --- |
| CCC(Sc1nc2ccccc2[nH]1)C(=O)Nc1nnc(C)s1 (stereo not given) | RP-LC retention time | 689 |
| CN1C(=O)c2cc(C(=O)NCCc3ccccc3)nn2CC1(C)C(=O)NC1CCCCC1 (stereo not given) | RP-LC retention time | 812 |
| COc1cc(NC(=O)CN2C(=O)C3CCCCN3c3ccc(C(=O)N(C)C)cc32)cc(OC)c1OC (stereo not given) | RP-LC retention time | 734 |
| Cc1[nH]ncc1CNC(=O)c1ccc2nc(Cc3ccccc3F)oc2c1 | RP-LC retention time | 689 |

Entry "COc1ccc(NC(=O)c2ccc3nc(-c4ccccc4)cn3c2)c(OC)c1" ; RP-LC retention time = 722

###

assay: gradient 5% acetonitrile 3 min, to 50% in 2 min, to 85% in 15 min, held 3 min, 100 µL/min; details: column: Zorbax Extend-C18 2.1 x 50 mm; eluents: water / acetonitrile, 0.1% formic acid
Threshold rule: RP-LC retention time greater than or equal to 700 s is Condition met; below that, Condition not met.

Solved cases (6 shown):
| Compound | Discrete Label |
| --- | --- |
| CCCn1cnc2ccc(-c3noc(-c4cccc(F)c4)n3)cc21 | Condition met |
| CCc1nn2c(CNC(=O)C3CCN(C(C)=O)CC3)c(-c3ccccc3)nc2s1 | Condition not met |
| CCOC(=O)c1c(CN2CCN(C)CC2)n(-c2ccccc2)c2cc(Br)c(OC)cc12 | Condition met |
| O=C(CC1CCN(C(=O)c2cc3ccccc3[nH]2)CC1)NCCN1CCCC1 | Condition not met |
| CN(C)c1cc2c(cc1NC(=O)Cc1ccccc1Cl)n(C)c(=O)c(=O)n2C | Condition met |
| O=C(N[C@@H]1CN(c2ccncn2)C[C@H]1CO)c1ccc2c(c1)OCO2 | Condition not met |

Could you please find out whether "CCn1c(=O)oc2cc(-c3noc(-c4cccc5[nH]ccc45)n3)ccc21" has RP-LC retention time that meets 700 s or exceeds it?
Condition met

Could you please find out whether "COCC(=O)N[C@@H]1CN(C2CCCCCC2)CC[C@@H]1CO" has RP-LC retention time that meets 700 s or exceeds it?
Condition not met

Could you please find out whether "O=C(NCCC1=CCCCC1)c1nc(-c2ccnc(N3CCOCC3)c2)no1" has RP-LC retention time that meets 700 s or exceeds it?
Condition met

###

experiment: gradient 5% acetonitrile 3 min, to 50% in 2 min, to 85% in 15 min, held 3 min, 100 µL/min; settings: column: Zorbax Extend-C18 2.1 x 50 mm; eluents: water / acetonitrile, 0.1% formic acid
molecules and their reported RP-LC retention time
# output: bare number, implied unit s

| Molecule | RP-LC retention time [s] |
| --- | --- |
| CC1CCCN(c2nn(CC(=O)Nc3ccc(C(F)(F)F)cc3)c(=O)c3ccccc23)C1 (stereo not given) | 1170 |
| COc1ccc(CNC(=O)c2cnc(N3CCC4(CC3)OCCO4)nc2N)c(OC)c1 | 640 |
| CCc1ccccc1NS(=O)(=O)c1cc(-c2[nH]ncc2C(=O)N2CCCC2)oc1C | 749 |
| COc1cc(-c2noc(-c3nc(-c4ccccc4F)no3)n2)cc(OC)c1OC | 1140 |

--- query ---
Entry "CCc1cc(N2CCN(C(=O)COc3ccc(OC)cc3)CC2)nc2nnc(C)n12" ; RP-LC retention time = 613

###

experiment: gradient 5% acetonitrile 3 min, to 50% in 2 min, to 85% in 15 min, held 3 min, 100 µL/min; settings: column: Zorbax Extend-C18 2.1 x 50 mm; eluents: water / acetonitrile, 0.1% formic acid
Threshold rule: RP-LC retention time greater than or equal to 800 s is 1; below that, -1.

Solved cases (2 shown):
| Structure As Smiles | Discrete Label |
| --- | --- |
| CCN1C(=O)COc2ccc(-c3nc(NC(=O)c4ccccc4)sc3C)cc21 | 1 |
| COc1cc(NC(=O)Nc2c(-c3ccc(F)cc3)nc3ccccn23)cc(OC)c1 | -1 |

Could you please find out whether "Cc1cccc(CS(=O)(=O)N(CCc2cccs2)Cc2cccnc2)c1" has RP-LC retention time that meets 800 s or exceeds it?
-1

Could you please find out whether "Cc1noc(-c2ccc(-n3cnc(C(=O)NCCc4ccccc4)c3)nc2)n1" has RP-LC retention time that meets 800 s or exceeds it?
-1

Could you please find out whether "CCn1c(=O)sc2cc(S(=O)(=O)N3CCC(C(=O)NCc4ccc(C)o4)CC3)ccc21" has RP-LC retention time that meets 800 s or exceeds it?
1

Could you please find out whether "O=C([C@@H]1C[C@H](Oc2ccccc2)CN1C1CCOCC1)N1CCc2ccccc21" has RP-LC retention time that meets 800 s or exceeds it?
-1

Could you please find out whether "COc1ccc(S(=O)(=O)N(C)CC2(C)CCOCC2)cc1Cl" has RP-LC retention time that meets 800 s or exceeds it?
1

Could you please find out whether "Cc1ccc(S(=O)(=O)N2CCC(c3noc(-c4ccccc4C)n3)CC2)cc1C" has RP-LC retention time that meets 800 s or exceeds it?
1

###

assay: gradient 5% acetonitrile 3 min, to 50% in 2 min, to 85% in 15 min, held 3 min, 100 µL/min; conditions: column: Zorbax Extend-C18 2.1 x 50 mm; eluents: water / acetonitrile, 0.1% formic acid
compounds and their reported RP-LC retention time
# output: bare number, implied unit s

Worked cases, RP-LC retention time given:
| Compound | Unit Text | Result Number |
| --- | --- | --- |
| CCOC(=O)c1ccc(NC2=NS(=O)(=O)C(c3ccc(OC)cc3)=C2C)cc1 | s | 928 |
| Cc1cc(C)c2c(-n3cccc3)c(C(=O)N3CCN(c4ccccn4)CC3)sc2n1 | s | 675 |
| Cc1sc(-c2nc(C(C)C)cs2)cc1S(=O)(=O)Nc1ccccc1F | s | 1170 |
| O=S(=O)(c1ccc(F)cc1)N1[C@H]2CC[C@@H]1c1cncnc1C2 | s | 709 |
| CC(Oc1ccccc1)C(=O)N1CCc2c(c(C(=O)NCc3ccc4c(c3)OCO4)nn2C)C1 (centres undefined) | s | 818 |

Entry CC(=O)N1CCC(C2CCN(C(=O)CN3CCCC3=O)C2)CC1 (centres undefined) ; RP-LC retention time = 580

Entry "CC(C)(Oc1ccc(Cl)cc1)C(=O)N1CCN(CCn2cccn2)CC1" ; RP-LC retention time = 598

Entry "CO[C@H]1CN(C(C)C)[C@H]1C1CCN(C(=O)C2CCC2)CC1" ; RP-LC retention time = 574

Entry "CCN1C(=O)c2cc(S(=O)(=O)Nc3ccc(C)c(C)c3)ccc2Oc2cccnc21" ; RP-LC retention time = 986

Entry "Cc1cccc(NC(=O)Cn2cnc3nc(N4CCC(C(=O)NC5CC5)CC4)sc3c2=O)c1" ; RP-LC retention time = 658
